Target: Coiled-coil domain-containing protein 6/Proto-oncogene tyrosine-protein kinase receptor Ret (Homo sapiens)
Sequence (P07949 whole entry, the tested form may be a part): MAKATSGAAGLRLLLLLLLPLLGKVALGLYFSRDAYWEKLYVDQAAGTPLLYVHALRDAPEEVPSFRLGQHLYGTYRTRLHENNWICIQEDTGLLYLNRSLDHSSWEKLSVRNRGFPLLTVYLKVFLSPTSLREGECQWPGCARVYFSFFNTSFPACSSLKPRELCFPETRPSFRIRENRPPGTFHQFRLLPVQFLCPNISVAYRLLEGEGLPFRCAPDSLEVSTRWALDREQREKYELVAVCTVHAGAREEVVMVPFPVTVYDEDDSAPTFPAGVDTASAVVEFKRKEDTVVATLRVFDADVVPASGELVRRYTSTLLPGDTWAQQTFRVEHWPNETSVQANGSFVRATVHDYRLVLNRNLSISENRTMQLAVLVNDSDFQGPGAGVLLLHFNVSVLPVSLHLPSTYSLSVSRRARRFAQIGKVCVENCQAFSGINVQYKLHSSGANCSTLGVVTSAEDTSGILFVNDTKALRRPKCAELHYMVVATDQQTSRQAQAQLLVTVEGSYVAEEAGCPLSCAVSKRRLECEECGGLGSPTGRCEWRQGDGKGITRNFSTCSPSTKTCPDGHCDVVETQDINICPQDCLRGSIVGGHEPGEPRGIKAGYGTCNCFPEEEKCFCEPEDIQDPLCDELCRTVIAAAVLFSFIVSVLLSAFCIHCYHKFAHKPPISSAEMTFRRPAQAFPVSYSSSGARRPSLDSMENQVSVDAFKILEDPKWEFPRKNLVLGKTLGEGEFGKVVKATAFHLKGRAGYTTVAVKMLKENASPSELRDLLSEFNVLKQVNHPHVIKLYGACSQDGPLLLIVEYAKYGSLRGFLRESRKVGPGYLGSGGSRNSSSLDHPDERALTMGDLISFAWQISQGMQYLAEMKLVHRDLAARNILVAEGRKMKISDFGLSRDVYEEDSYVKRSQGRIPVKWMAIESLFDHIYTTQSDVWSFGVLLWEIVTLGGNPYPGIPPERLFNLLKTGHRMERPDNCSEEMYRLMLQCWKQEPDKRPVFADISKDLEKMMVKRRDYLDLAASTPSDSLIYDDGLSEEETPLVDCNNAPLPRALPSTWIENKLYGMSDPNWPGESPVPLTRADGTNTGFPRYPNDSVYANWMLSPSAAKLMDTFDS
Sequence (Q16204 whole entry, further chain, the tested form may be a part): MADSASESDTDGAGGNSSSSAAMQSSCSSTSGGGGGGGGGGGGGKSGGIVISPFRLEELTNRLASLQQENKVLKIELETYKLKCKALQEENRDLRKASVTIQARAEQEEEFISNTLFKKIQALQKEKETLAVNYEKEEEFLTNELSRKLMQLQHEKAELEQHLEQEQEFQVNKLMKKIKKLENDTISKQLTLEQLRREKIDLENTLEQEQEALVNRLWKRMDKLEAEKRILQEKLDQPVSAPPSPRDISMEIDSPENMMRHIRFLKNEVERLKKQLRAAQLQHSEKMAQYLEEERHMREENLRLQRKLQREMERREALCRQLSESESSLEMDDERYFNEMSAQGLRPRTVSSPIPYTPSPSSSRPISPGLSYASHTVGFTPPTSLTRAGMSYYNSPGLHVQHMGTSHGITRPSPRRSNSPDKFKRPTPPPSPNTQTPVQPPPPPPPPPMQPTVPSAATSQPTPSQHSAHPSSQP
REPORTED_METRIC: IC50 (nM)
# output: bare number, implied unit nM

[ask] Which IC50 reading was recorded for the compound C#Cc1cccc(C(=O)NC2CCN(c3ccc(-c4cc(-c5cnn(C)c5)cn5ncc(C#N)c45)cn3)CC2)c1 [US12209085, Example 268] ?
[reply] 3.16

---

Here's a batch of compounds along with measured IC50 for UniProt:P07949.
# output: bare number, implied unit nM

- COMPOUND: "C#CC#CCN1C2CC1CN(c1ccc(-c3cc(-c4cnn(C)c4)cn4ncc(C#N)c34)cn1)C2 [US12209085, Example 276]"
  UNIT_LABEL: "nM"
  IC50: 0.39

[ask] Give IC50 (UniProt:P07949) of the following compound: C#Cc1ncc(CN2C3CC2CN(c2ccc(-c4cc(-c5cnn(C)c5)cn5ncc(C#N)c45)cn2)C3)cc1F [US12209085, Example 227]
[reply] 0.13

[ask] Give IC50 (UniProt:P07949) of the following compound: C#Cc1ccc(CN2C3CC2CN(c2ccc(-c4cc(-c5cnn(C)c5)cn5ncc(C#N)c45)cn2)C3)cn1 [US12209085, Example 186]
[reply] 0.17

Cited source: BindingDB's records for patent US12209085
